Entries and their TGI
# System: SF-268 CNS
# assayRemarks: NCI tumour cell line growth inhibition, 48 h

Reference set (10 entries):
compound: O=C(Oc1ccc(Cl)cc1Cl)c1ccccc1Nc1ccnc(C(F)(F)F)c1
quantityName: TGI
reading: 13.6 µM
//
compound: O=C(Nc1sccc1S(=O)(=O)c1ccccc1)c1cccnc1
quantityName: TGI
reading: > 100 µM
//
compound: CC(=O)n1c(COS(C)(=O)=O)nc2ccccc21
quantityName: TGI
reading: > 100 µM
//
compound: CS(=O)(=O)CCNCc1nc(-c2ccc3ncnc(Nc4ccc(F)c(Cl)c4)c3c2)cs1
quantityName: TGI
reading: > 25 µM
//
compound: CC(C)C[C@H](NC(=O)[C@H](Cc1cccc2ccccc12)NC(=O)N1CCOCC1)B(O)O
quantityName: TGI
reading: 0.00328 µM
//
compound: COc1ccc(-c2nn3ncccc3c2-c2ccnc(Nc3ccc(Cl)c(C(F)(F)F)c3)n2)cc1
quantityName: TGI
reading: > 25 µM
//
compound: CCC[CH2][Sn-]([CH2]CCC)([CH2]CCC)[O]c1cc(Cl)c(Cl)cc1Cl
quantityName: TGI
reading: 1.05 µM
//
compound: CC(=O)c1ccc(N=Nc2ccc3nonc3c2N)cc1
quantityName: TGI
reading: > 100 µM
//
compound: CSc1c(C(=O)Nc2ccccc2)c(N)nn1-c1ccccc1
quantityName: TGI
reading: > 100 µM
//
compound: Cc1ccc2[nH]cc(-c3nc(-c4c[nH]c5ncccc45)cs3)c2c1
quantityName: TGI
reading: > 100 µM

Query compound follows.
[in] For the compound O=C(CCCn1cnc([N+](=O)[O-])n1)NCCn1ccnc1[N+](=O)[O-] , give its measured TGI value.
[out] > 100 µM

###

# Test system: HT29 colon
# assayRemarks: NCI tumour cell line growth inhibition, 48 h
quantityName: TGI

Reference set (3 entries):
compound: O=C(Nc1ccccc1)O/N=C(/CBr)c1ccccc1
TGI: > 100 µM
--
compound: CCc1cccc(C(C)C)c1NC(=O)C(=O)C(Cc1nc2ccccc2[nH]c1=O)C(=O)OC (stereo not given)
TGI: > 100 µM
--
compound: ClCc1cccc(Cn2cnc3c(Cl)ncnc32)c1
TGI: > 100 µM

[in] For the compound COc1ccc2c(c1)O[C@@H]1C(O)Oc3cc(OC)c(OC)cc3[C@]1(O)C2=O (stereo not given in full) , give its measured TGI value.
[out] > 100 µM

[in] For the compound CSc1c(C(=O)Nc2ccccc2)c(N)nn1-c1ccccc1 , give its measured TGI value.
[out] > 100 µM

[in] For the compound CCOC(=O)[C@@]1(C)C=C2O[C@@H]3OC4(CCCCC4)O[C@@H]3C2=C2C(O)=CC=C(O)[C@]21C(=O)OC , give its measured TGI value.
[out] > 68 µM

[in] For the compound CN(C)C(=S)N/N=C\C=N/NC(=S)N(C)C , give its measured TGI value.
[out] > 100 µM

[in] For the compound CS(=O)(=O)CCNCc1nc(-c2ccc3ncnc(Nc4ccc(F)c(Cl)c4)c3c2)cs1 , give its measured TGI value.
[out] > 25 µM

[in] For the compound Cc1c(C)c(C)c(-n2[nH]c(=O)n(C)c2=O)c(C)c1C , give its measured TGI value.
[out] > 100 µM

[in] For the compound COc1cc(OC)c([C@@H]2OC(=O)C3C2C(=O)O[C@H]3c2cc(OC)c(OC)cc2OC)cc1OC (stereo not given in full) , give its measured TGI value.
[out] > 100 µM

###

# System: K-562 leukemia
# assayRemarks: NCI tumour cell line growth inhibition, 48 h; in the data active means GI50 below about 0.43 µM; inactive means the rest
Mark one answer only. Choices: yes = active, no = inactive

[in] Give the logged outcome of this assay for the following compound: COC(=O)N[C@H]1CCc2c(Br)c(OC)c(OC)c(OC)c2-c2ccc(SC)c(=O)cc21
[out] yes

###

# Tested on: 786-0 renal
# assayRemarks: NCI tumour cell line growth inhibition, 48 h
Entries and their log10 of TGI
Give log10 of TGI, with TGI taken in µM.

Reference set (5 entries):
chemicalString: COc1ccc2cc(C(=O)/C=C/c3cc(OC)c(OC)c(OC)c3)ccc2c1
assayedSystem: 786-0 renal
log10 of TGI: 1.20
--
chemicalString: COC(=O)N[C@H]1CCc2c(Br)c(OC)c(OC)c(OC)c2-c2ccc(SC)c(=O)cc21
assayedSystem: 786-0 renal
log10 of TGI: 1.39
--
chemicalString: Oc1ccc(/C=C\c2nnc(/C=C\c3ccc(O)c(O)c3)s2)cc1O
assayedSystem: 786-0 renal
log10 of TGI: 1.59
--
chemicalString: O=C(Nc1ccccc1)O/N=C(/CBr)c1ccccc1
assayedSystem: 786-0 renal
log10 of TGI: 1.42
--
chemicalString: Cn1ccnc1S/C(=C\C=C(C#N)C#N)c1ccc(Cl)cc1
assayedSystem: 786-0 renal
log10 of TGI: 0.72

[in] For the molecule C=C1C(=O)O[C@H]2[C@H]1CC/C(Cn1cc(CNC(=O)Cc3cn(C(=O)c4ccc(Cl)cc4)c4ccc(OC)cc34)nn1)=C\CC[C@@]1(C)O[C@@H]21 , give its measured log10 of TGI value.
[out] 0.48

[in] For the molecule CN(C)c1cccc2c(S(=O)(=O)N[C@H]3CC[C@H]4[C@@H]5CCc6cc(O)ccc6[C@H]5CC[C@]34C)cccc12 , give its measured log10 of TGI value.
[out] 0.99

[in] For the molecule CCN(CC)Cc1nc2sc3c(c2c(=O)n1-c1ccccc1)CCCC3 , give its measured log10 of TGI value.
[out] 1.51

[in] For the molecule Cc1ccc(S(=O)(=O)N/C(=C\C=C\c2ccccc2)C(=O)C(C)(C)C)cc1 , give its measured log10 of TGI value.
[out] 1.87

###

# Test system: UO-31 renal
# assayRemarks: NCI tumour cell line growth inhibition, 48 h; in the data active = GI50 below about 0.43 µM; inactive = the rest
Mark one answer only. Choices: active, inactive

chemicalString: O=C(CSc1nc2ccccc2[nH]1)Nc1ccc(-c2nc3ccccc3s2)c(Cl)c1
assayedSystem: UO-31 renal
cat: inactive
//
chemicalString: C=C1C(=O)O[C@H]2[C@H]1CC/C(Cn1cc(CNC(=O)Cc3cn(C(=O)c4ccc(Cl)cc4)c4ccc(OC)cc34)nn1)=C\CC[C@@]1(C)O[C@@H]21
assayedSystem: UO-31 renal
cat: inactive
//
chemicalString: COc1cc(-c2nn(-c3ccc(NC(=O)c4ccc(Cl)c(Cl)c4)cc3)cc2-c2ccncc2)ccc1Cl
assayedSystem: UO-31 renal
cat: inactive
//
chemicalString: COc1cc2c3c(n(C)c(=O)c2cc1OC)-c1cc2c(cc1/C3=C\CCCCCN)OCO2
assayedSystem: UO-31 renal
cat: inactive
//
chemicalString: CS(=O)(=O)CCNCc1nc(-c2ccc3ncnc(Nc4ccc(F)c(Cl)c4)c3c2)cs1
assayedSystem: UO-31 renal
cat: inactive
//
chemicalString: CCN(CC)CCOc1nc2ccc(OC)cc2c2c1-c1ccc(OC)cc1C2=O
assayedSystem: UO-31 renal
cat: active

Shifting focus to the compound that follows.
[in] Give the logged outcome of this assay for the following compound: COc1ccc2nc(N/N=C(\C)c3ccccn3)cc(C)c2c1
[out] active

###

# Tested on: MDA-MB-435
# assayRemarks: NCI tumour cell line growth inhibition, 48 h; in the data active = GI50 below about 0.43 µM; inactive = the rest
Mark one answer only. Choices: 1 (active), -1 (inactive)

Example entries begin here.
compound: COc1ccc(-c2nn3ncccc3c2-c2ccnc(Nc3ccc(Cl)c(C(F)(F)F)c3)n2)cc1
cat: -1
--
compound: COc1cc2c3c(n(C)c(=O)c2cc1OC)-c1cc2c(cc1/C3=C\CCCCCN)OCO2
cat: -1
--
compound: COc1cc(C2CC(c3ccc(C)cc3)=NN2C=O)ccc1Oc1ccnc2cc(Cl)ccc12 (stereo not given)
cat: -1

[in] Give the logged outcome of this assay for the following compound: CCC[CH2][Sn-]([CH2]CCC)([CH2]CCC)[O]c1cc(Cl)c(Cl)cc1Cl
[out] 1

[in] Give the logged outcome of this assay for the following compound: N=C1C(c2nc(-c3ccc(Br)cc3)cs2)=C(O)CN1Cc1cccnc1
[out] -1

[in] Give the logged outcome of this assay for the following compound: Cc1c2c(nn1-c1ccc(S(=O)(=O)NC(=S)Nc3ccccc3)cc1)-c1ccccc1CC2
[out] -1

###

# System: A549 NSCLC
# assayRemarks: NCI tumour cell line growth inhibition, 48 h
quantityName: TGI

[in] For the molecule CC(=O)NCCCCNCCCNC(C)=O , give its measured TGI value.
[out] > 100 µM

[in] For the molecule CC(=O)NNc1nc(C)c(C(/C=C/c2ccc3c(c2)OCO3)=N/Nc2ccccc2)s1 , give its measured TGI value.
[out] > 100 µM

[in] For the molecule CSc1c(C(=O)Nc2ccccc2)c(N)nn1-c1ccccc1 , give its measured TGI value.
[out] > 100 µM

[in] For the molecule NCCC(N)C(=O)O (centres undefined) , give its measured TGI value.
[out] > 100 µM

[in] For the molecule COC(=O)CCCc1ccc2c(c1)CC1(C2)Cc2cc3c(cc2C1)CCCC3 , give its measured TGI value.
[out] 67.7 µM

[in] For the molecule COc1ccc2c(c1)O[C@@H]1C(O)Oc3cc(OC)c(OC)cc3[C@]1(O)C2=O (some centres undefined) , give its measured TGI value.
[out] > 100 µM

[in] For the molecule Cc1ccc(N=Nc2c(C)nn(C(=O)CC(=O)Nc3ccccc3)c2C)cc1C , give its measured TGI value.
[out] > 100 µM

[in] For the molecule Cn1c2c(c3ccccc31)CCN(CCCCN1CCc3c(n(C)c4ccccc34)C1=O)C2 , give its measured TGI value.
[out] > 100 µM

[in] For the molecule O=C1C(=O)N(C(=O)c2ccc(Cl)c(Cl)c2)c2ccccc21 , give its measured TGI value.
[out] > 100 µM

[in] For the molecule COc1cc(OC)c2c(O)cc(CC(C)O)cc2c1 (centres undefined) , give its measured TGI value.
[out] > 100 µM

[in] For the molecule CC(C)C[C@H](NC(=O)[C@H](Cc1cccc2ccccc12)NC(=O)N1CCOCC1)B(O)O , give its measured TGI value.
[out] 0.267 µM

[in] For the molecule S=C1c2ccccc2NC(=NC2CCCC2)C2CSCN12 (centres undefined) , give its measured TGI value.
[out] > 100 µM
